Here the recorded MIC is given for each entry.
Tested on: Escherichia coli
assay notes: Antimicrobial activity against azide-resistant aac(6')-Ib-cr deficient Escherichia coli J53 qnrA1 bearing pHS5 transconjugant from Enterobacter cloacae 641 by agar dilution method
Type: functional
Report the figure in µg/mL without appending any unit label.

C[C@H]1COc2c(N3CCN(C)CC3)c(F)cc3c(=O)c(C(=O)O)cn1c23.C[C@H]1COc2c(N3CCN(C)CC3)c(F)cc3c(=O)c(C(=O)O)cn1c23.O; 0.19

Proceed to the following item.
Request: Quote MIC reported for NCC[C@H](O)C(=O)N[C@@H]1C[C@H](N)[C@@H](O[C@H]2O[C@H](CN)[C@@H](O)[C@H](O)[C@H]2O)[C@H](O)[C@H]1O[C@H]1O[C@H](CO)[C@@H](O)[C@H](N)[C@H]1O please.
Result: 4
